# TARGET DESC: T1, human MerTK (human, UniProt Q12866 26-499)
# T1 construct: also called HuMER
# T1 sequence: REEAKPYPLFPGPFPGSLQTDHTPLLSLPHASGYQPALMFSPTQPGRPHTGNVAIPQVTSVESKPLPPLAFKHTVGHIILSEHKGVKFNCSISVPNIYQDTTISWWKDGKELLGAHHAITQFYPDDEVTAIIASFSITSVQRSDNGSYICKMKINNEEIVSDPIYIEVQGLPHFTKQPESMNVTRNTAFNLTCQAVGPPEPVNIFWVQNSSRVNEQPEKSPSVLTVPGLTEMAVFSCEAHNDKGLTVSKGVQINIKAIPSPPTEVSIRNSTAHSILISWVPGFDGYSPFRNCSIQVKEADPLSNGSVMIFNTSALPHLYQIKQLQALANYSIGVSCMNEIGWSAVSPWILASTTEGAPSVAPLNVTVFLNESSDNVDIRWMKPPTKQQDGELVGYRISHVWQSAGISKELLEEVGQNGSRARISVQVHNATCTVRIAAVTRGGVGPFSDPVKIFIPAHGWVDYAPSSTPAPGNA
# ASSAY PROCEDURE: SPR BIAcore T200, Ab captured, 37C
ASSAY METRIC: Kd (nM)
Response body: numeric value in nM, unit text excluded.

Data request: State the recorded Kd for this entry: h9E3.FN.v1 (antibody, V domains shown, also called h9E3.FN.V1 (Parent); 9E3.FN Humanized mAb V1) VH: EQQLVESGGGLIQPGGSLRLSCAVSGFSLSSNAMSWVRQAPGKGLEWIGIISSSGSTYSASWAKGRFTISKDSSKNTMYLQMNSLRAEDTAVYFCARVGFFVGYGAYDYGIIHRLDLWGQGTLVTVSS VL: DAQLTQSPSTLSASVGDRVTITCQSSKSIYNNNWLSWYQQKPGKPPKLLIYDASDLASGVPSRFSGSGSGTEFTLTISSLQPDDFATYYCAGGYSGDSDYAFGGGTKVEIK
Data returned: 11.2

Data request: Please give the measured Kd for this binder: h10F7.v1 (antibody, V domains shown, also called h10F7.V1 (Parent); 10F7 Humanized mAb V1) VH: EQQLVESGGGLVQPGGSLRLSCAVSGFSLSGYAMSWVRQAPGKGLEYIGVISSSGSSYYPSWAKGRFTISKDSSKNTVYLQMGSLRAEDMAVYFCARVQFYVGYAVYGYGIIDRLDLWGQGTLVTVSS VL: DAVLTQSPDSLAVSLGERATINCQSSKSVYNNNWLSWYQQKPGQPPKLLIYRASTLESGVPDRFSGSGSGTDFTLTISSLQAEDVAVYFCAGGYSSSSSANAFGGGTKVEIK
Data returned: 6.7

Data request: State the recorded Kd for this entry: h9E3.FN.v16 (antibody, V domains shown, Humanized, human IgG1; also called 9E3.FN Humanized polished mAb) VH: EVQLVESGGGLIQPGGSLRLSCAASGFSLSSNAMSWVRQAPGKGLEWVSIISSSGSTYSASWAKGRFTISKDNSKNTLYLQMNSLRAEDTAVYYCARVGFFVGYGAYDYGIIHRLDLWGQGTLVTVSS VL: DIQLTQSPSTLSASVGDRVTITCQSSKSIYNNNWLSWYQQKPGKPPKLLIYDASDLASGVPSRFSGSGSGTEFTLTISSLQPDDFATYYCAGGYSGDSDYAFGGGTKVEIK
Data returned: 5.8

Data request: Using the record for h10F7.v16 (antibody, V domains shown, Humanized, human IgG1; also called 10F7 Fully Humanized; 10F7 Humanized polished mAb) VH: EVQLVESGGGLVQPGGSLRLSCAVSGFSLSGYAMSWVRQAPGKGLEYIGVISSSGSSYYPSWAKGRFTISKDNSKNTLYLQMGSLRAEDMAVYYCARVQFYVGYAVYGYGIIDRLDLWGQGTLVTVSS VL: DIVLTQSPDSLAVSLGERATINCQSSKSVYNNNWLSWYQQKPGQPPKLLIYRASTLESGVPDRFSGSGSGTDFTLTISSLQAEDVAVYFCAGGYSSSSSANAFGGGTKVEIK , report its Kd.
Data returned: 4.9

These measurements were taken from patent US20220135701A1.
